Listed next: entries and their corresponding DC50.
Target Of Assay: Nanoluciferase-BRD9 fusion protein (Homo sapiens (Human), UniProt Q9H8M2)
Sequence (Q9H8M2 whole entry, the tested form may be a part): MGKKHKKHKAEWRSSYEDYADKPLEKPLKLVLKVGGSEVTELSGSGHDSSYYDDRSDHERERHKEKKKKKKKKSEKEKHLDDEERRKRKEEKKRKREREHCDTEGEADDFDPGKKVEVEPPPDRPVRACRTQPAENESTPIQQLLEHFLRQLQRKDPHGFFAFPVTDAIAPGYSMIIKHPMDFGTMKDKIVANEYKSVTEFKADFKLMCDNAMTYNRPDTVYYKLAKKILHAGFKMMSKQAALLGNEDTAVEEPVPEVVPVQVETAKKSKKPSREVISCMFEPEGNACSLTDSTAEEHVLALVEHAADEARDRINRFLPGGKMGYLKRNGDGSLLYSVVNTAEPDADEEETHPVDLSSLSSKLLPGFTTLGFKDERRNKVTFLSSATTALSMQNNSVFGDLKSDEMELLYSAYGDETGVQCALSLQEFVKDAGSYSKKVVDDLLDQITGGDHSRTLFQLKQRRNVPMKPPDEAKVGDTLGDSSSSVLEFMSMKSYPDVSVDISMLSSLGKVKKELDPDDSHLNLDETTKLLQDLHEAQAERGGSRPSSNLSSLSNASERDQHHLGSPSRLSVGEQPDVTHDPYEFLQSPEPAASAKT
Assay Details: SYO1 BRD9 NanoLuc degradation assay
Format: cell-based
Study Conditions: Table 5B; SYO-1 cells expressing 3×FLAG-NLuc-BRD9, 6 hours; read-out: SYO1 BRD9-NanoLuc degradation IC50

Illustrative cases are given below, each with its answer.
| Compound | Measured Value |
| --- | --- |
| COc1cc(-c2cn(C)c(=O)c3cnccc23)cc(OC)c1CN1CC2(CN(CC#Cc3ccc4c(c3)C(=O)N(C3CCC(=O)NC3=O)C4=O)C2)C1 (centres unmarked) [Compound D309] | 10 to 100 nM |
| COc1cc(-c2cn(C)c(=O)c3cnccc23)cc(OC)c1CN(C)C(=O)CCCCNC1CC2(C1)CC(Oc1ccc3c(c1)C(=O)N(C1CCC(=O)NC1=O)C3=O)C2 (centres unmarked) [Compound D260] | < 10 nM |
| COc1cc(-c2cn(C)c(=O)c3cnccc23)cc(OC)c1CN(C)CCOCCn1cc(CCOc2ccc3c(c2)C(=O)N(C2CCC(=O)NC2=O)C3=O)nn1 (centres unmarked) [Compound D292] | 100 to 1000 nM |
| COc1cc(-c2cn(C)c(=O)c3cnccc23)cc(OC)c1CN(C)CCOCCOCCNc1cccc2nc(C)n(C3CCC(=O)NC3=O)c(=O)c12 (centres unmarked) [DD3] | > 1000 nM |

Asked: Query: DC50; subject: COc1cc(-c2cn(C)c(=O)c(C)c2C)cc(OC)c1CN1CCN(CCC2CCN(c3ccc4c(c3)CN(C3CCC(=O)NC3=O)C4=O)CC2)CC1 (centres unmarked) [Compound D362]
Given back: < 10 nM

* * *

Target Of Assay: BRD9 bromodomain (Homo sapiens (Human), UniProt Q9H8M2)
Sequence (Q9H8M2 133-239): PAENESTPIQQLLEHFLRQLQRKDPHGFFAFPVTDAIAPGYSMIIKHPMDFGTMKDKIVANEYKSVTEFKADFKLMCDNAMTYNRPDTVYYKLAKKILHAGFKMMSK
Assay Details: BRD9 bromodomain TR-FRET competition binding assay
Study Conditions: Table 4; competition with biotinylated ligand, 3 nM Flag-BRD9, 90 minutes
Property Measured: IC50

| Compound | IC50 |
| --- | --- |
| COc1cc(-c2cn(C)c(=O)c3cnccc23)cc(OC)c1CN(C)CC1CC2CN(C(=O)CCOCCOc3ccc4c(c3)C(=O)N(C3CCC(=O)NC3=O)C4=O)C[C@@H]2C1 (some centres unmarked) | < 10 nM |

Asked: Which IC50 is listed for COc1cc(-c2cn(C)c(=O)c3cnccc23)cc(OC)c1CN1CCC2(CC1)CN(C(=O)CCCOc1cccc3c1C(=O)N(C1CCC(=O)NC1=O)C3=O)CCO2 (centres unmarked) ?
Given back: < 10 nM

Asked: What measured IC50 goes with COc1cc(-c2cn(C)c(=O)c3cnccc23)cc(OC)c1CN(C)CC1CC2(CCN(C(=O)CCOCCOc3cccc4c3C(=O)N(C3CCC(=O)NC3=O)C4=O)CC2)O1 (centres unmarked) ?
Given back: < 10 nM

Asked: # IC50 lookup, item COc1cc(-c2cn(C)c(=O)c3cnccc23)cc(OC)c1CN1CC(NC(=O)CCCCCOc2cccc3c2C(=O)N(C2CCC(=O)NC2=O)C3=O)C1 (centres unmarked)
Given back: < 10 nM

Asked: I'd like to know its IC50. The compound in question is COc1cc(-c2cn(C)c(=O)c3cnccc23)cc(OC)c1CN(C)CC1CC2(CCN(C(=O)CCOCCOc3cccc4c3C(=O)N(C3CCC(=O)NC3=O)C4=O)CC2)C1 (centres unmarked)
Given back: 10 to 100 nM

Asked: Value lookup for IC50; key = COc1cc(-c2cn(C)c(=O)c3cnccc23)cc(OC)c1CN1CCC2(CC1)CN(C(=O)CCCCOc1cccc3c1C(=O)N(C1CCC(=O)NC1=O)C3=O)CCO2 (centres unmarked)
Given back: < 10 nM

* * *

Readings of IC50 for the listed compounds
Target Of Assay: Nanoluciferase-BRD9 fusion protein (Homo sapiens (Human), UniProt Q9H8M2)
Assay Details: SYO1 BRD9 NanoLuc degradation assay
Type: cell-based
Study Conditions: Table 5A; SYO-1 cells expressing 3×FLAG-NLuc-BRD9, 6 hours

Below, 3 compounds whose answers are already recorded.
| Compound | Target Of Assay | Measured Value |
| --- | --- | --- |
| COc1cc(-c2cn(C)c(=O)c3cnccc23)cc(OC)c1CN(C)CCCN1CCC(Oc2ccc3c(c2)C(=O)N(C2CCC(=O)NC2=O)C3=O)CC1 (centres unmarked) | Nanoluciferase-BRD9 fusion protein (Homo sapiens (Human), UniProt Q9H8M2) | < 10 nM |
| COc1cc(-c2cn(C)c(=O)c3cnccc23)cc(OC)c1CN1CC2(CCN(C(=O)CCOCCOc3cccc4c3C(=O)N(C3CCC(=O)NC3=O)C4=O)C2)C1 (centres unmarked) | Nanoluciferase-BRD9 fusion protein (Homo sapiens (Human), UniProt Q9H8M2) | 10 to 100 nM |
| COc1cc(-c2cn(C)c(=O)c3cnccc23)cc(OC)c1CN(C)C1CC2CC1CN2C(=O)CCOCCOc1ccc2c(c1)C(=O)N(C1CCC(=O)NC1=O)C2=O (centres unmarked) | Nanoluciferase-BRD9 fusion protein (Homo sapiens (Human), UniProt Q9H8M2) | < 10 nM |

Asked: Write down the reported IC50 of COc1cc(-c2cn(C)c(=O)c3cnccc23)cc(OC)c1CN1CCC2(CC1)CN(C(=O)CCCOc1cccc3c1C(=O)N(C1CCC(=O)NC1=O)C3=O)CCO2 (centres unmarked) , test system: Nanoluciferase-BRD9 fusion protein (Homo sapiens (Human), UniProt Q9H8M2).
Given back: < 10 nM

Asked: Give Nanoluciferase-BRD9 fusion protein (Homo sapiens (Human), UniProt Q9H8M2) IC50 for COc1cc(-c2cn(C)c(=O)c3cnccc23)cc(OC)c1CN1CC2(CCN(C(=O)CCOCCOc3cccc4c3C(=O)N(C3CCC(=O)NC3=O)C4=O)CC2)C1 (centres unmarked)
Given back: 100 to 1000 nM

* * *

Target Of Assay: BRD9 bromodomain (Homo sapiens (Human))
Assay Details: BRD9 bromodomain TR-FRET competition binding assay
Study Conditions: Table 4; competition with biotinylated ligand, 3 nM Flag-BRD9, 90 minutes
pIC50: −log10 of the molar value.
Property Measured: pIC50

Asked: Can you look up the measured pIC50 of COc1cc(-c2cn(C)c(=O)c3cnccc23)cc(OC)c1CN(C)CC(=O)N1CCC(C2CCN(C(=O)COc3cccc4c3C(=O)N(C3CCC(=O)NC3=O)C4=O)CC2)CC1 (centres unmarked) [Compound D2] for me?
Given back: > 8.00

* * *

Target Of Assay: Nanoluciferase-BRD9 fusion protein (Homo sapiens (Human), UniProt Q9H8M2)
Assay Details: SYO1 BRD9 NanoLuc degradation assay
Assay type: cell-based
Study Conditions: Table 5B; SYO-1 cells expressing 3×FLAG-NLuc-BRD9, 6 hours; read-out: SYO1 BRD9-NanoLuc degradation IC50
Below, each entry is listed with its recorded DC50.

| Molecule | Measured Value |
| --- | --- |
| COc1cc(-c2cn(C)c(=O)c3cnccc23)cc(OC)c1CN1CCC(n2cc(COC3CN(c4ccc5c(c4)C(=O)N(C4CCC(=O)NC4=O)C5=O)C3)nn2)CC1 (stereo not drawn) | < 10 nM |
| COc1cc(-c2cn(C)c(=O)c3[nH]ccc23)cc(OC)c1CN1CCC2(CC1)CN(c1ccc3c(c1)C(=O)N(C1CCC(=O)NC1=O)C3=O)C2 (stereo not drawn) | < 10 nM |
| COc1cc(-c2cn(C)c(=O)c3cnccc23)cc(OC)c1CN(C)C(=O)CCCCN1CCC2(CC1)CN(c1ccc3c(c1)C(=O)N(C1CCC(=O)NC1=O)C3=O)C2 (stereo not drawn) | < 10 nM |
| COc1cc(-c2cn(C)c(=O)c3ccccc23)cc(OC)c1CN1CC(CN2CCC3(CC2)CN(c2ccc4c(c2)C(=O)N(C2CCC(=O)NC2=O)C4)C3)C1 (stereo not drawn) | < 10 nM |
| CNC(=O)NCc1cc(-c2cc(OC)c(CN3CC(CN4CCC5(CC4)CN(c4ccc6c(c4)C(=O)N(C4CCC(=O)NC4=O)C6=O)C5)C3)c(OC)c2)cn(C)c1=O (stereo not drawn) | 100 to 1000 nM |
| COc1cc(-c2cn(C)c(=O)c3cnccc23)cc(OC)c1CN(C)C(=O)CCCCNC1CC2(CCN(c3ccc4c(c3)C(=O)N(C3CCC(=O)NC3=O)C4=O)CC2)C1 (stereo not drawn) | < 10 nM |
| COc1cc(-c2cn(C)c(=O)c3cnccc23)cc(OC)c1CN(C)CCCCCCCCNc1cccc2nc(C)n(C3CCC(=O)NC3=O)c(=O)c12 (stereo not drawn) | 10 to 100 nM |
| COc1cc(-c2cn(C)c(=O)c3cnccc23)cc(OC)c1CN(C)CCCCN1CCC2(CC(Oc3ccc4c(c3)C(=O)N(C3CCC(=O)NC3=O)C4=O)C2)C1 (stereo not drawn) | < 10 nM |

For the next question, use this molecule.
Asked: API: value(readout= DC50, system= Nanoluciferase-BRD9 fusion protein (Homo sapiens (Human), UniProt Q9H8M2), query= COc1cc(-c2cn(C)c(=O)c3cnccc23)cc(OC)c1CN(C)C(=O)CCCCN1CCC2(CCN(c3ccc4c(c3)C(=O)N(C3CCC(=O)NC3=O)C4=O)C2)C1 (stereo not drawn) )
Given back: < 10 nM
